- MEASURED_TARGET: T1, cynomolgus monkey TREM2 Fc fusion (entire TREM2 ECD; only one Fc arm fused to TREM2) (cynomolgus monkey, UniProt Q9NZC2 19-174 (human entry))
- T1 construct: also called cyno TREM2-Fc
- T1 chain: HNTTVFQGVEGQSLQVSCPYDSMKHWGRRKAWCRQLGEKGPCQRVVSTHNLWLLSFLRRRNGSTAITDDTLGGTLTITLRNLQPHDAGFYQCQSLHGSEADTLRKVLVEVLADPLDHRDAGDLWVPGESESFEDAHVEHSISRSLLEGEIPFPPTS
- EXPERIMENT: BLI, Fab, monovalent
PROPERTY_LABEL: pKd
Quick note: pKd values are minus log10 of concentrations in mol/L.

Examples from the recorded data:
>>> numeric_result("AL2p-h50 (antibody, human IgG1, V domains shown, humanized, human IgG1; Fab and IgG formats under one id) VH: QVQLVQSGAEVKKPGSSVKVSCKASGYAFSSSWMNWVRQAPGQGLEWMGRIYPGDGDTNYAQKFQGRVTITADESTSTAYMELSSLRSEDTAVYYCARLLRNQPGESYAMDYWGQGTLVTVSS VL: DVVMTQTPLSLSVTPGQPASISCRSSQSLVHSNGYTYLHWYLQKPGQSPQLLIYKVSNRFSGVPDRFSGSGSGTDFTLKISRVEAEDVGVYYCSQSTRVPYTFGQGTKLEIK")
5.11
>>> numeric_result("AL2p-21 (antibody, V domains shown, Fab and IgG formats under one id) VH: QVQLVQSGAEVKKPGSSVKVSCKASGYAFSSHWMNWVRQAPGQGLEWMGRIYPGDGDTNYAWKFQGRVTITADESTSTAYMELSSLRSEDTAVYYCARLLRNQPGESYAMDYWGQGTLVTVSS VL: GVVMTQTPLSLSVTPGQPASISCRSSSSLVHSNGYTYLHWYLQKPGQSPQLLIYKVSNRKSGVPDRFSGSGSGTDFTLKISRVEAEDVGVYYCSQSTRVPYTFGQGTKLEIK")
8.42
>>> numeric_result("AL2p-44 (antibody, IgG1, V domains shown, Fab and IgG formats under one id) VH: QVQLVQSGAEVKKPGSSVKVSCKASGYAFSSHWMNWVRQAPGQGLEWMGRIYPGGGDTNYARKFRGRVTITADESTSTAYMELSSLRSEDTAVYYCARLLRNQPGASYAMDYWGQGTLVTVSS VL: GVVMTQTPLSLSVTPGQPASISCRTSRSLVHSNRYTYLHWYLQKPGQSPQLLIYKVSNRRSGVPDRFSGSGSGTDFTLKISRVEAEDVGVYYCSQSTRVPYTFGQGTKLEIK")
9.57
>>> numeric_result("AL2p-9 (antibody, V domains shown, Fab and IgG formats under one id) VH: QVQLVQSGAEVKKPGSSVKVSCKASGYAFSRSWMNWVRQAPGQGLEWMGRIYPGDGDTNYAQKFQGRVTITADESTSTAYMELSSLRSEDTAVYYCARLLRNQPGASYAMDYWGQGTLVTVSS VL: GVVMTQTPLSLSVTPGQPASISCRTSQSLVHSNGYTYLHWYLQKPGQSPQLLIYKVSNRVSGVPDRFSGSGSGTDFTLKISRVEAEDVGVYYCSQSTRVPYTFGQGTKLEIK")
8.25

// next entry
Prompt: Return value of pKd for input AL2p-46 (antibody, V domains shown, Fab and IgG formats under one id) VH: QVQLVQSGAEVKKPGSSVKVSCKASGYAFSSDWMNWVRQAPGQGLEWMGRIYPGEGDTNYARKFQGRVTITADESTSTAYMELSSLRSEDTAVYYCARLLRNKPGESYAMDYWGQGTLVTVSS VL: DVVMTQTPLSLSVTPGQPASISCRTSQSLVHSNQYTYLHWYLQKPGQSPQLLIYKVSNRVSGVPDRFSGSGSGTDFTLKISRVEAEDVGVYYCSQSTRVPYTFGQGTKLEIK , no commentary.
Completion: 7.79

These data points were gathered from patent US20200317776A1.
